- Tgt: Human FXRα Ligand Binding Domain (Homo sapiens, UniProt Q96RI1)
- Construct: polyhistidine (pRSET-A vector leader) (N); made in house; host or cells: E. coli BL21 (DE3), pRSET-A vector
- Method description: FXR Cofactor Binding Assay (ligand mediated SRC-1 cofactor peptide interaction, time resolved fluorescence)
- Type: biochemical
- Condition label: FXRα LBD / SRC-1 (LCD2, 676-700) peptide, TRF; read-out: Activity (pEC50) (converted)
Outcome measure: EC50

// worked examples, EC50 included
CC(C)c1onc(-c2c(Cl)cccc2Cl)c1COc1ccc2ccc(-c3cccc(C(=O)O)c3)cc2c1 :: 102 to 1000 nM
CC(C)c1onc(-c2c(Cl)cccc2Cl)c1COc1ccc2cc(-c3ccc(C(=O)O)cc3)sc2c1 :: 102 to 1000 nM
CC(=O)N(C(C)=O)c1cccc(-c2ccc3cc(OCc4c(-c5c(Cl)cccc5Cl)noc4C(C)C)ccc3c2)c1 :: 102 to 1000 nM
CC(C)c1onc(-c2c(Cl)cccc2Cl)c1COc1ccc2c(c1)CN(c1cccc(C(=O)O)c1)C2=O :: 102 to 1000 nM
CC(C)c1onc(-c2c(Cl)cccc2Cl)c1COc1ccc2c(ccn2C(=O)N2CC[C@H](C(=O)O)C2)c1 :: 102 to 1000 nM
CC(C)c1onc(-c2c(Cl)cccc2Cl)c1COc1ccc2c(ccn2Cc2cccc(-c3nnn[nH]3)c2)c1 :: 102 to 1000 nM
CC(C)c1onc(COc2c(Cl)cccc2Cl)c1COc1ccc2c(ccn2Cc2cccc(C(=O)O)c2)c1 :: 102 to 1000 nM
CC(C)c1onc(-c2c(Cl)cccc2Cl)c1COc1ccc2c(ccn2C(=O)N2CC[C@@H](C(=O)O)C2)c1 :: 102 to 1000 nM
CC(C)c1onc(-c2c(Cl)cccc2Cl)c1COc1ccc2c(ccn2Cc2cccc(C(=O)O)c2)c1 :: 102 to 1000 nM
CC(C)c1onc(COc2c(Cl)cc(Cl)cc2Cl)c1COc1ccc2c(ccn2Cc2cccc(C(=O)O)c2)c1 :: 102 to 1000 nM

INPUT: Item CC(C)c1onc(-c2c(Cl)cccc2Cl)c1COc1ccc2sc(-c3cccc(C(=O)O)c3)cc2c1 has what recorded EC50?
OUTPUT: < 100 nM

INPUT: Fill in the blank: the reported EC50 of CC(C)c1onc(-c2c(Cl)cccc2Cl)c1COc1ccc2cc(-c3cccc(NS(=O)(=O)C(F)(F)F)c3)ccc2c1 is ____.
OUTPUT: 102 to 1000 nM

INPUT: Which value of EC50 has been reported for CC(C)c1onc(-c2c(Cl)cccc2Cl)c1COc1ccc2c(Cc3cccc(C(=O)O)c3)c[nH]c2c1 in the records?
OUTPUT: 102 to 1000 nM

INPUT: Data request, read-out EC50, for CC(C)c1onc(-c2c(Cl)cccc2Cl)c1COc1ccc2cc(-c3cccc(N(S(=O)(=O)C(F)(F)F)S(=O)(=O)C(F)(F)F)c3)ccc2c1
OUTPUT: 102 to 1000 nM

INPUT: For CC(C)c1onc(-c2c(Cl)cccc2Cl)c1COc1ccc2c(ccn2Cc2nc(C(=O)O)co2)c1 , what is its reported EC50?
OUTPUT: 102 to 1000 nM

INPUT: I have this compound here, CC(C)c1onc(-c2c(Cl)cccc2Cl)c1COc1ccc2c(ccn2Cc2ccc(C(=O)O)cc2)c1 , and I need its recorded EC50.
OUTPUT: 102 to 1000 nM

INPUT: Data request, read-out EC50, for CC(C)c1onc(-c2c(Cl)cccc2Cl)c1COc1ccc2c(ccn2Cc2cccc(C(=O)O)n2)c1
OUTPUT: 102 to 1000 nM

INPUT: Which EC50 reading was recorded for the compound CC(C)c1onc(-c2c(Cl)cccc2Cl)c1COc1ccc2cc(-c3cccc(C(=O)O)n3)ccc2c1 ?
OUTPUT: 102 to 1000 nM

* * *

- Tgt: Human FXRα Ligand Binding Domain (Homo sapiens, UniProt Q96RI1)
- Construct: polyhistidine (pRSET-A vector leader) (N); made in house; host or cells: E. coli BL21 (DE3), pRSET-A vector
- Method description: FXR Cofactor Binding Assay (ligand mediated SRC-1 cofactor peptide interaction, time resolved fluorescence)
- Type: biochemical
- Condition label: FXRα LBD / SRC-1 (LCD2, 676-700) peptide, TRF; read-out: Activity (pEC50) (converted)
Outcome measure: EC50

CC(C)c1onc(COc2c(Cl)cc(F)cc2Cl)c1COc1ccc2c(ccn2Cc2cccc(C(=O)O)c2)c1 :: 102 to 1000 nM
CC(C)c1onc(-c2c(Cl)cccc2Cl)c1COc1ccc2cc(-c3ccc(F)c(C(=O)O)c3)ccc2c1 :: 102 to 1000 nM
CC(C)c1onc(-c2c(Cl)cccc2Cl)c1COc1ccc2cc(-c3cncc(C(=O)O)c3)ccc2c1 :: 102 to 1000 nM

Turning to the following molecule.
INPUT: Consider the molecule shown here: CC(C)c1onc(-c2c(Cl)cccc2Cl)c1CCc1nc2cccc(Nc3cccc(C(=O)O)c3)c2o1 What is its recorded EC50?
OUTPUT: 1020 to 10000 nM

* * *

- Tgt: Human FXRα Ligand Binding Domain (Homo sapiens, UniProt Q96RI1)
- Construct: polyhistidine (pRSET-A vector leader) (N); made in house; host or cells: E. coli BL21 (DE3), pRSET-A vector
- Method description: FXR Cofactor Binding Assay (ligand mediated SRC-1 cofactor peptide interaction, time resolved fluorescence)
- Format: biochemical
- Condition label: FXRα LBD / SRC-1 (LCD2, 676-700) peptide, TRF; read-out: Activity (pEC50) (converted)
Outcome measure: EC50

CC(C)c1onc(-c2c(Cl)cccc2Cl)c1CNc1nc2ccc(-c3cccc(C(=O)O)c3)cc2s1 :: 102 to 1000 nM
CC(=O)Nc1cccc(-c2ccc3cc(OCc4c(-c5c(Cl)cccc5Cl)noc4C(C)C)ccc3c2)c1 :: 102 to 1000 nM
CC(C)c1onc(-c2c(Cl)cccc2Cl)c1COc1ccc2cc(-c3ccc(C(=O)O)cn3)ccc2c1 :: 102 to 1000 nM
CC(C)c1onc(-c2c(Cl)cccc2Cl)c1COc1ccc2c(ccn2C(=O)c2cccc(C(=O)O)c2)c1 :: 102 to 1000 nM

INPUT: Which value of EC50 has been reported for CC(C)c1onc(-c2c(Cl)cccc2Cl)c1COc1ccc2c(ccn2Cc2ccc(-c3nnn[nH]3)cc2)c1 in the records?
OUTPUT: < 100 nM

INPUT: Could you share which EC50 value was measured for CC(C)c1onc(CSc2nccs2)c1COc1ccc2c(ccn2Cc2cccc(C(=O)O)c2)c1 ?
OUTPUT: 1020 to 10000 nM

INPUT: # input compound: CC(C)c1onc(-c2c(Cl)cccc2Cl)c1COc1ccc2[nH]cc(Cc3cccc(C(=O)O)c3)c2c1 ; wanted: its EC50
OUTPUT: 1020 to 10000 nM

* * *

- Tgt: Human FXRα Ligand Binding Domain (Homo sapiens, UniProt Q96RI1)
- Construct: polyhistidine (pRSET-A vector leader) (N); made in house; host or cells: E. coli BL21 (DE3), pRSET-A vector
- Sequence (Q96RI1 237-472 isoform Q96RI1-2): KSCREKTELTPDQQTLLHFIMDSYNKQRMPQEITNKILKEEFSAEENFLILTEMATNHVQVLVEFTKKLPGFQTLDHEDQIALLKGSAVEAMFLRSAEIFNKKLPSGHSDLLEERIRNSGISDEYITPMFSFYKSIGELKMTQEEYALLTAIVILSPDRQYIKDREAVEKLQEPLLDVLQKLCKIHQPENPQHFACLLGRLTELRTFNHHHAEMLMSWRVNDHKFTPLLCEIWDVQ
- Method description: FXR Cofactor Binding Assay (ligand mediated SRC-1 cofactor peptide interaction, time resolved fluorescence)
- Assay type: biochemical
- Condition label: FXRα LBD / SRC-1 (LCD2, 676-700) peptide, TRF; read-out: Activity (pEC50) (converted)
Outcome measure: EC50

// below: answered compounds
CC(=O)Nc1ccc(-c2ccc3cc(OCc4c(-c5c(Cl)cccc5Cl)noc4C(C)C)ccc3c2)cc1 [Example 31] :: 102 to 1000 nM
CC(C)c1onc(-c2c(Cl)cccc2Cl)c1COc1ccc2c(c1)ncn2Cc1cccc(C(=O)O)c1 [Example 42] :: 1020 to 10000 nM
CC(C)c1onc(-c2c(Cl)cncc2Cl)c1COc1ccc2ccn(Cc3cccc(C(=O)O)c3)c2c1 [Example 8] :: 102 to 1000 nM
CC(C)c1onc(-c2c(Cl)cccc2Cl)c1COc1ccc2cc(-c3ccnc(C(=O)O)c3)ccc2c1 [Example 20] :: 102 to 1000 nM
CC(C)c1onc(-c2c(Cl)cccc2Cl)c1CCc1nc2cc(-c3cccc(C(=O)O)c3)ccc2o1 [Example 39] :: 1020 to 10000 nM

INPUT: So what EC50 did CC(C)c1onc(CNc2c(Cl)cccc2Cl)c1COc1ccc2c(ccn2Cc2cccc(C(=O)O)c2)c1 [Example 4] get with Human FXRα Ligand Binding Domain (Homo sapiens, UniProt Q96RI1)?
OUTPUT: 1020 to 10000 nM

INPUT: Report EC50 for CC(C)c1onc(-c2c(Cl)cccc2Cl)c1COc1ccc2cc(-c3cc(C(=O)O)ccn3)ccc2c1 [Example 21] tested on Human FXRα Ligand Binding Domain (Homo sapiens, UniProt Q96RI1).
OUTPUT: 102 to 1000 nM
